# Tested on: MV-4-11 (leukemia)
# measurement.protocol: Cell cytotoxicity assay (CellTiter-Glo), MV-4-11
# Assay type: cell-based
# condition.summary: Homo sapiens, MV4-11; 48 hours; cell viability; read-out: IC50 after 48 hours of treatment, MV-4-11
measurement.kind: pIC50
Answers are plain numbers, as −log10 of the molar value.

Respectfully, I request pIC50 for each entry included below.
1. N#Cc1ccc(-c2cnc3ccc(-c4ccc(C(=O)N5CCOCC5)cc4)nn23)cc1
2. CN1CCN(C(=O)c2ccc(-c3ccn4ncc(-c5ccc(C#N)cc5)c4n3)cc2)CC1

6.10
6.00

Please state, for each entry, its recorded pIC50.
1. CN1CCN(C2CCN(C(=O)c3ccc(-c4ccc5ncc(-c6ccc(C#N)cc6)n5c4)cc3)CC2)CC1
2. CN1CCN(C(=O)c2ccc(-c3ccc4ncc(-c5ccc(O)cc5)n4c3)cc2)CC1

1. 5.55
2. 6.05

###

# measurement.protocol: Pharmacokinetics assays (plasma and brain)
# Assay type: in vivo
# condition.summary: plasma; species, dose and route not given
Provide the reported Cmax of each item.
Numbers only, in ng/mL.

N#Cc1ccc(-c2cnc3ccc(-c4ccc(C(=O)N5CCNCC5)cc4)nn23)cc1
275

Provide Cmax values for the following items, in order.
1. CC(=O)Nc1cc(-c2ccc3ncc(-c4ccc(C#N)cc4)n3c2)ccc1C(=O)N1CCOCC1
2. N#Cc1ccc(-c2cnc3cnc(-c4ccc(C(=O)N5CCOCC5)cc4)cn23)cc1
3. CN1CCN(C(=O)c2ccc(-c3cn4c(-c5ccc(C#N)cc5)cnc4cn3)cc2)CC1

1: 3860; 2: 6400; 3: 2670
